pIC50: −log10 of the molar value.
Listing of pIC50 toward Oxytocin receptor (Rattus norvegicus, UniProt P70536), each taken from a published source.

>  <Compound>
Cc1ccccc1C(=O)Nc1ccc(C(=O)N2CCCC(CC(=O)N3CCCCC3)c3cc(Cl)ccc32)cn1 (stereo not drawn)

>  <pIC50>
6.29

$$$$
>  <Compound>
COc1cc(C(=O)N2Cc3cccn3Cc3ccccc32)ccc1NC(=O)c1ccc(Cl)cc1Cl

>  <pIC50>
7.40

$$$$
>  <Compound>
CN1CCN(C(=O)CCCOc2ccccc2C(=O)Nc2ccc(C(=O)N3CCCCc4cc(Cl)ccc43)cn2)CC1

>  <pIC50>
5.14

$$$$
>  <Compound>
C#CCNCCOC1CCCN(C(=O)c2ccc(NC(=O)c3ccccc3Cl)cc2OC)c2ccc(Cl)cc21 (stereo not drawn)

>  <pIC50>
6.38

$$$$
>  <Compound>
CCOC(=O)N1CCN(CCC2CCCN(C(=O)c3ccc(NC(=O)c4ccccc4Cl)cc3OC)c3ccc(Cl)cc32)CC1 (stereo not drawn)

>  <pIC50>
6.30

$$$$
>  <Compound>
COc1cc(NC(=O)c2ccccc2Cl)ccc1C(=O)N1CCCC(OCCn2ccnc2)c2cc(Cl)ccc21 (stereo not drawn)

>  <pIC50>
6.50

$$$$
>  <Compound>
C=CCNCCC1CCCN(C(=O)c2ccc(NC(=O)c3ccccc3Cl)cc2C)c2ccc(F)cc21 (stereo not drawn)

>  <pIC50>
5.28

$$$$
>  <Compound>
COc1cc(NC(=O)c2ccccc2Cl)ccc1C(=O)N1CCCC(OCCNC(N)=O)c2cc(Cl)ccc21 (stereo not drawn)

>  <pIC50>
6.82

$$$$
>  <Compound>
COC(=O)c1ccc2n1Cc1ccccc1N(C(=O)c1ccc(NC(=O)c3ccc(Cl)cc3Cl)cc1)C2

>  <pIC50>
5.96

$$$$
>  <Compound>
COc1cc(NC(=O)c2cccc3c2OCCC3)ccc1C(=O)N1CCCC(CC(=O)N2CCN(C)CC2)c2cc(Cl)ccc21 (stereo not drawn)

>  <pIC50>
5.36

$$$$
>  <Compound>
Cc1cc(NC(=O)c2ccccc2Cl)ccc1C(=O)N1CCCC(CCn2ncnn2)c2cc(Cl)ccc21 (stereo not drawn)

>  <pIC50>
5.55

$$$$
>  <Compound>
Cc1ccccc1C(=O)Nc1ccc(C(=O)N2CCCC(CC(=O)N3CCC(N(C)C)CC3)c3cc(Cl)ccc32)c(C)c1 (stereo not drawn)

>  <pIC50>
5.49

$$$$
>  <Compound>
Cc1ccccc1C(=O)Nc1ccc(C(=O)N2CCCC(CC(N)=O)c3cc(Cl)ccc32)c(Cl)c1 (stereo not drawn)

>  <pIC50>
5.66

$$$$
>  <Compound>
COc1cc(NC(=O)c2ccccc2Cl)ccc1C(=O)N1CCCC(OCCNC2CC2)c2cc(Cl)ccc21 (stereo not drawn)

>  <pIC50>
6.63

$$$$
>  <Compound>
O=C(Nc1ccc(C(=O)N2CCCC(CC(=O)N3CCCC3)c3cc(Cl)ccc32)cn1)c1ccccc1Cl (stereo not drawn)

>  <pIC50>
6.49

$$$$

====

Compiled from multiple publications: IC50 readings for Oxytocin receptor (Rattus norvegicus, UniProt P70536).
Measurement type: IC50 (nM)

>  <Compound>
O=C(Nc1ccc(C(=O)N2Cc3cccn3Cc3ccccc32)c(Cl)c1)c1ccc(Cl)cc1Cl

>  <Measurement type>
IC50

>  <Result value>
350

$$$$
>  <Compound>
O=C(Nc1ccc(C(=O)N2Cc3ccc(Cl)n3Cc3ccccc32)cc1)c1ccc(Cl)cc1Cl

>  <Measurement type>
IC50

>  <Result value>
160

$$$$
>  <Compound>
COc1cc(C(=O)N2Cc3cccn3Cc3ccccc32)ccc1N

>  <Measurement type>
IC50

>  <Result value>
3100

$$$$
>  <Compound>
CNC1CCCN(C(=O)c2ccc(NC(=O)c3ccccc3Cl)nc2)c2ccc(Cl)cc21 (centres unmarked)

>  <Measurement type>
IC50

>  <Result value>
1000

$$$$
>  <Compound>
COc1cc(C(=O)N2Cc3cccn3Cc3ccccc32)ccc1NC(=O)c1ccccc1C

>  <Measurement type>
IC50

>  <Result value>
29

$$$$
>  <Compound>
C=CCOC1CCCN(C(=O)c2ccc(NC(=O)c3ccccc3Br)nc2)c2ccc(Cl)cc21 (centres unmarked)

>  <Measurement type>
IC50

>  <Result value>
1500

$$$$
>  <Compound>
COc1cc(NC(=O)c2ccccc2Cl)ccc1C(=O)N1CCCC(CC(=O)N2CCN(CC(=O)N3CCCC3)CC2)c2cc(Cl)ccc21 (centres unmarked)

>  <Measurement type>
IC50

>  <Result value>
47

$$$$
>  <Compound>
CN(C)Cc1ccc2n1Cc1ccccc1N(C(=O)c1ccc(-c3cccs3)cc1)C2

>  <Measurement type>
IC50

>  <Result value>
330

$$$$
